Molecular target: T1, CRBN, Q96SW2;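 also: pooled lentiviral library of zinc finger degron-EGFP fusions in mCherry-positive Jurkat cells, FACS-sorted after compound exposure, with degron abundance counted by next-generation sequencing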
T1 chain: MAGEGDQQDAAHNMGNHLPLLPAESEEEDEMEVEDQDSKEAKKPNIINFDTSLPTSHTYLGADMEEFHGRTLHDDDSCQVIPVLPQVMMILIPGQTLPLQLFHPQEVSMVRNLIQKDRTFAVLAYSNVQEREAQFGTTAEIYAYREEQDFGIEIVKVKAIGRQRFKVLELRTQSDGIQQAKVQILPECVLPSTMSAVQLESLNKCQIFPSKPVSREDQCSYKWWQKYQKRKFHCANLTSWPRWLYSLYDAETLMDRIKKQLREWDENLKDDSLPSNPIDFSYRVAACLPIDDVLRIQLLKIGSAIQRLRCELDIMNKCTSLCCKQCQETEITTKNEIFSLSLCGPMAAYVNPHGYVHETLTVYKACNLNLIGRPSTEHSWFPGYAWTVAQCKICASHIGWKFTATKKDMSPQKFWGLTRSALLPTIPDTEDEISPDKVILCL
Assay: log2 fold change of degron read counts, EGFP-low vs EGFP+ sorted cells (limma voom), compound-induced degradation; higher = more compound-induced degradation of the degron-EGFP fusion; degrons are variants of IKZF1/3 zinc finger 2; compound dose not given here
Conditions: Jurkat; 18 h; compound: thalidomide
The full ranking holds about 8,300 sequences; the median of “log2 fold change of degron read counts, EGFP-low vs EGFP+ sorted cells (limma voom), compound-induced degradation” is about -1.1, and the highest 2% start at about 3.2. This excerpt belongs to a sample that is enriched for the highest values.
PROPERTY LABEL: log2 fold change of degron read counts

Examples with answers:
> print(dat)
                         construct.sequence                          property.label  recorded.value
1  FDCPVCGAQFTQKGNLLRHIKL [46F_47D_49P_50V_52G_53A_54Q_55F_67L_, Q9UKT9]  log2 fold change of degron read counts            2.23
2  FVCDVCGADFTQKGNLLRHIKL [46F_47V_49D_50V_52G_53A_54D_55F_67L_, Q9UKT9]  log2 fold change of degron read counts           -1.73
3  FTCEVCGAPFTQKGNLLRHIKL [46F_47T_49E_50V_52G_53A_54P_55F_67L_, Q9UKT9]  log2 fold change of degron read counts            2.71

Lookup: Specify log2 fold change of degron read counts for LCCNQCGFHCTQKGNLLRHIKL [46L_47C_49N_50Q_52G_53F_54H_55C_67L_, Q9UKT9] and stop.
Found: -1.96

Lookup: Specify log2 fold change of degron read counts for FNCPVCGAQFTQKGNLLRHIKL [46F_47N_49P_50V_52G_53A_54Q_55F_67L_, Q9UKT9] and stop.
Found: 0.953

Lookup: Specify log2 fold change of degron read counts for FDCEVCGAPFTQKGNLLRHIKL [46F_47D_49E_50V_52G_53A_54P_55F_67L_, Q9UKT9] and stop.
Found: -0.746

Lookup: Specify log2 fold change of degron read counts for FICPVCGAQFTQKGNLLRHIKL [46F_47I_49P_50V_52G_53A_54Q_55F_67L_, Q9UKT9] and stop.
Found: 2.73

Lookup: Specify log2 fold change of degron read counts for FICEVCGAPFTQKGNLLRHIKL [46F_47I_49E_50V_52G_53A_54P_55F_67L_, Q9UKT9] and stop.
Found: 3.17

Lookup: Specify log2 fold change of degron read counts for FSCEVCGAPFTQKGNLLRHIKL [46F_47S_49E_50V_52G_53A_54P_55F_67L_, Q9UKT9] and stop.
Found: 1.1

Lookup: Specify log2 fold change of degron read counts for FQCEICGRNFTQKGNLLRHIKL [46F_47Q_49E_50I_52G_53R_54N_55F_67L_, Q9UKT9] and stop.
Found: 0.915

Lookup: Specify log2 fold change of degron read counts for FTCNVCGAPFTQKGNLLRHIKL [46F_47T_49N_50V_52G_53A_54P_55F_67L_, Q9UKT9] and stop.
Found: 1.51
